Test system: PHKG2
Details: concentration: 1 μM, replicates: in singlicate; n = 1;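 further: KINOMEscan kinase panel screen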
recorded-metric: %Inh (%)
Just the number please, in %, no unit attached.

// worked examples, %Inh included
> print(dat)
                                  structure  test.system  recorded.metric  reported
1                        CCn1cnc2c(N)ncnc21        PHKG2             %Inh        13
2  O=c1cc(N2CCOCC2)nc2n(Cc3cccc(Cl)c3Cl)c(C3CC3)nn12        PHKG2             %Inh         0
3  O=C(NCCNc1ccnc(Nc2ccc(F)cc2)n1)Nc1ccccc1F        PHKG2             %Inh         0
4  Cc1c2ccc(N(C)c3ccnc(Nc4cccc(S(N)(=O)=O)c4)n3)cc2nn1Cc1ccccc1.Cl.Cl        PHKG2             %Inh         0
5  O=c1cc(N2CCOCC2)nc2n(Cc3cccc(C(F)(F)F)c3)ccn12        PHKG2             %Inh         4
6  CCc1nc(-c2cccc(C)c2)c(-c2ccnc(NCc3ccccc3)c2)s1        PHKG2             %Inh        22
7  COc1ccc(COc2cc(-n3cnc4ccccc43)sc2C(N)=O)cc1        PHKG2             %Inh         0

The record that follows has no %Inh shown yet.
Ask: Value wanted: %Inh (PHKG2) of entry C[C@@H](Oc1cc(-n2cnc3ccc(NC(=O)NC(C)(C)C)cc32)sc1C(N)=O)c1ccccc1Cl
Result: 13

###

Tested on: CDK3
Settings: concentration: 1 μM, replicates: in singlicate; n = 1
Classification field: T = %Inh at or over 1%; F = %Inh under 1%.

See these solved cases before continuing.
> print(dat)
                                   compound  class.assignment
1  NCC(NC(=O)c1cc(-c2cn[nH]c2)c(-c2ccnc3[nH]ccc23)s1)c1ccccc1.O=C(O)C(F)(F)F.O=C(O)C(F)(F)F (centres unmarked) [GSK1325775]                 F
2  CC(=O)Nc1ccc(COc2ccc(Nc3ccnc4cc(-c5ccccn5)ccc34)cc2)cc1.Cl [GW440148]                 F
3  O=C1NC(=O)C(N2CCc3ccccc32)=C1c1cccc(Cl)c1 [SB-408010]                 F
4  O=c1cc(N2CCOCC2)nc2n(Cc3cccc(Cl)c3Cl)c(C3CC3)nn12 [GSK2358994]                 T
5  Cl.Nc1ncnc2occ(-c3ccc(NC(=O)Nc4cc(C(F)(F)F)ccc4F)cc3)c12 [SB-707548]                 T

Ask: Could you please find out whether O=C(NCCNc1ccnc(Nc2ccc(F)cc2)n1)Nc1ccccc1F [GSK1379880] has %Inh that meets 1% or exceeds it?
Result: T

Ask: Further, for COc1ccc(CNC(=O)NC2CCN(c3ccnc(Nc4ccc(OC)cc4)n3)C2)cc1 (centres unmarked) [GSK1379727] ?
Result: T

###

Test system: p38-alpha
Construct: gene MAPK14
Conditions: concentration: 1 μM, replicates: in singlicate; n = 1
Here the recorded %Inh is given for each entry.
Just the number please, in %, no unit attached.

// worked examples, %Inh included
> print(dat)
                                   compound  reported
1  Cc1ccc(C(=O)NCC(N)=O)cc1-n1c(C)cc(OCc2ccc(F)cc2F)c(Br)c1=O       100
2  COc1ccc(Nc2nccc(N3CCC(NC(=O)Nc4cc(C)ccc4C)C3)n2)cc1 (stereo not drawn)         0
3  Cn1cc(-c2ccc3c(c2)CCN3C(=O)Cc2ccccc2Cl)c2c(N)ncnc21      99.9
4  Fc1ccc(-c2ncn(CCCN3CCOCC3)c2-c2ccccn2)cc1         2
5  NS(=O)(=O)c1cccc(-c2ccc3ncc(N4CCOCC4)nc3c2)c1         9
6  Cn1ccc2ncnc(Oc3ccc(NC(=O)Nc4ccncc4)c(Cl)c3)c21         0
7  O=C(NOCC1CC1)c1ccc(F)c(F)c1Nc1ccc(I)cc1Cl         0
8   Cc1cccc(Cn2ccn3c(=O)cc(N4CCOCC4)nc23)c1        27

The record that follows has no %Inh shown yet.
Ask: Looking for the measured %Inh of O=C(NCCCN1CCOCC1)c1cccc(Nc2nccc(Nc3ccc(Oc4ccccc4)cc3)n2)c1 , can you help?
Result: 11
